Experiment: Stability of viprostol compositions on storage in glass (ampules)
Format: physicochemical
Conditions: neat bulk liquid, 42°C 2 months; read-out: Stability of Viprostol Compositions (% of Initial Potency)
MEASURED ENDPOINT: remaining at 1440 h (%)
Response body: numeric value in %, unit text excluded.

Query: Let me know recorded remaining at 1440 h for C=CC(O)(CC=CC1C(O)CC(=O)C1CC=CCCCC(=O)OC)CCCC (racemic) [viprostol] , thanks.
Response: 83

###

Experiment: Stability of viprostol compositions on storage in glass (ampules)
Assay type: physicochemical
Details: neat bulk liquid, 23°C 12 months; read-out: Stability of Viprostol Compositions (% of Initial Potency)
MEASURED ENDPOINT: remaining at 8760 h (%)
Response body: numeric value in %, unit text excluded.

Query: Let me know recorded remaining at 8760 h for C=CC(O)(CC=CC1C(O)CC(=O)C1CC=CCCCC(=O)OC)CCCC (racemic) , thanks.
Response: 20

###

Test: Stability of viprostol compositions on storage in glass (ampules)
Type: physicochemical
Conditions: neat bulk liquid, 23°C 2 months; read-out: Stability of Viprostol Compositions (% of Initial Potency)
MEASURED ENDPOINT: remaining at 1440 h (%)
Response body: numeric value in %, unit text excluded.

Query: Let me know recorded remaining at 1440 h for C=CC(O)(CC=CC1C(O)CC(=O)C1CC=CCCCC(=O)OC)CCCC (racemic) [viprostol] , thanks.
Response: 99

###

Assay: Stability of viprostol compositions on storage in glass (ampules)
Type: physicochemical
Conditions: neat bulk liquid, 56°C 1 month; read-out: Stability of Viprostol Compositions (% of Initial Potency)
MEASURED ENDPOINT: remaining at 720 h
State the result as a value with its unit after it.

Query: Let me know recorded remaining at 720 h for C=CC(O)(CC=CC1C(O)CC(=O)C1CC=CCCCC(=O)OC)CCCC (racemic) , thanks.
Response: 32%

###

Assay: Stability of viprostol compositions on storage in glass (ampules)
Format: physicochemical
Conditions: neat bulk liquid, 23°C 18 months; read-out: Stability of Viprostol Compositions (% of Initial Potency)
MEASURED ENDPOINT: remaining at 13152 h (%)
Response body: numeric value in %, unit text excluded.

Query: Let me know recorded remaining at 13152 h for C=CC(O)(CC=CC1C(O)CC(=O)C1CC=CCCCC(=O)OC)CCCC (racemic) [viprostol] , thanks.
Response: 12

Data provenance: patent EP0249194A2
